I'd appreciate it if you could supply Ki values for the items below.
Target: DNA-dependent ATPase A (Bos taurus, UniProt Q9TTA5)
Sequence (Q9TTA5 222-940): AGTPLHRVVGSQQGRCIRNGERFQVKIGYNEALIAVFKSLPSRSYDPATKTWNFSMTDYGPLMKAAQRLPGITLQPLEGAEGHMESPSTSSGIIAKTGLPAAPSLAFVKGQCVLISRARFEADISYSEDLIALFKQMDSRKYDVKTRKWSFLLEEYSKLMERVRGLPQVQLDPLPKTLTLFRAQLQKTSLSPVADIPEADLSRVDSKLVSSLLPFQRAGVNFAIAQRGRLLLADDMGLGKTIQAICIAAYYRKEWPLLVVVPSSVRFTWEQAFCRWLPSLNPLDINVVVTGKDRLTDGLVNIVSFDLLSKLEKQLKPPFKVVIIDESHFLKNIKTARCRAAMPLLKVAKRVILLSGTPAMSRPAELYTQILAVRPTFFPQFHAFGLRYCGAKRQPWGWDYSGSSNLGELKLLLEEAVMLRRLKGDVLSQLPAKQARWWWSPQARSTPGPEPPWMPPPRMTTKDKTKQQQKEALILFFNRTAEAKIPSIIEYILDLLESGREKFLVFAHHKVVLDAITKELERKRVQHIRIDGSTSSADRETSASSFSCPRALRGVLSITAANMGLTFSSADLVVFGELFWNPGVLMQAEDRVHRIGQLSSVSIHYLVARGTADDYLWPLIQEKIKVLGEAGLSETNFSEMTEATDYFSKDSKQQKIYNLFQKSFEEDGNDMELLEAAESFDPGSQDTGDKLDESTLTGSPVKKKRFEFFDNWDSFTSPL
Assay: Inhibition of ATP hydrolysis by DNA-dependent ATPase A (overexpressed 82 kDa ADAAD)
Type: biochemical, bovine
Details: Ki, Table 4; determined in the presence of effector
Numbers only, in nM.

INSERT INTO assay_data (cpd_smiles, recorded_number) VALUES
  ('NCC[C@H](O)C(=O)N[C@@H]1C[C@H](N)[C@@H](O[C@H]2O[C@H](CN)[C@@H](O)[C@H](OP(=O)(O)O)[C@H]2O)[C@H](O)[C@H]1O[C@H]1O[C@H](CO)[C@@H](O)[C@H](N)[C@H]1O', 167),
  ('NC[C@H]1O[C@H](O[C@H]2[C@H](O)[C@@H](O[C@H]3O[C@H](CO)[C@@H](O)[C@H](N)[C@H]3O)[C@H](N)C[C@@H]2N)[C@H](O)[C@@H](OP(=O)(O)O)[C@@H]1O', 580),
  ('CN[C@@H]1[C@@H](O)[C@@H](O[C@@H]2[C@@H](O)[C@H](O[C@H]3O[C@H]([C@@H](C)O)[C@@H](O)[C@H](OP(=O)(O)O)[C@H]3N)[C@@H](N)C[C@H]2N)OC[C@]1(C)O', 191);

Please give the measured Ki for this molecule: `CN[C@@H]1[C@@H](O)[C@@H](O[C@@H]2[C@@H](O)[C@H](O[C@H]3O[C@H](CO)[C@@H](O)[C@H](OP(=O)(O)O)[C@H]3N)[C@@H](N)C[C@H]2N)OC[C@H]1O`
219

Provenance of the data: patent US6573060B1
